- system: human βG (hβG) (Homo sapiens)
- Construct: histidine tag (N); made in house; host or cells: E. coli BL21 (DE3)
- Sequence (P08236 23-651): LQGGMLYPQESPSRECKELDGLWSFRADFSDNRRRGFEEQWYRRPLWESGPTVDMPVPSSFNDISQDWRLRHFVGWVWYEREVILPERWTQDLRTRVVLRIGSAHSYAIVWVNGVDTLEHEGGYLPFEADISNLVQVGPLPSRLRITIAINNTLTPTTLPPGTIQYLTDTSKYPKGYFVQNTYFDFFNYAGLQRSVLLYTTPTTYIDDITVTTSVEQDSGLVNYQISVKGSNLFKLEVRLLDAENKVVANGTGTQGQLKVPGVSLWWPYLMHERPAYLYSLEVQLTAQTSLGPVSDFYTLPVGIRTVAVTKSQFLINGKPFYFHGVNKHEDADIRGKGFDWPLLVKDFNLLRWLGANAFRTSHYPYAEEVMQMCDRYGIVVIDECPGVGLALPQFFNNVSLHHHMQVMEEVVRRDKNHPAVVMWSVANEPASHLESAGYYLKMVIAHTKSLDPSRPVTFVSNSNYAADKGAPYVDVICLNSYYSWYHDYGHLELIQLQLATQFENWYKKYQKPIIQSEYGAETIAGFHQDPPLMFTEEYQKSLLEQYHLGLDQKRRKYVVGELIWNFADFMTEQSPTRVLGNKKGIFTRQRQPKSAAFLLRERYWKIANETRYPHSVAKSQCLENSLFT
- experiment-description: In vitro βG-activity assay (pNPG hydrolysis), hβG
- Format: biochemical
- condition-notes: pH 5.4, percent of activity vs untreated control
The compounds listed here are annotated with their hβG activity (%) with 50 μM compound.
property: hβG activity (%) with 50 μM compound

compound="CNC(=S)Nn1cnc2c(cnn2-c2ccccc2)c1=N [Compound 2138]" test_result=107.27
compound="CCOC(=O)c1ccc(NC(=S)N2CCN(C)CC2)cc1 [Compound 1089]" test_result=119.17
compound="COc1ccc(S(=O)(=O)NCCN2CCOCC2)c2ccccc12 [Compound 7670]" test_result=93.31
compound="CC(=O)Nc1ccc(S(=O)(=O)Oc2ccc([N+](=O)[O-])cc2)cc1 [Compound 7100]" test_result=112.56
compound="Cc1ccccc1NC(=O)c1cccc(NC(=O)c2cc(Cl)c(Cl)cc2C(=O)O)c1 [Compound 1306]" test_result=105.45
compound="O=C1C=C(Nc2cccc3cc(S(=O)(=O)O)ccc23)c2ccccc2C1=O [Compound 4277]" test_result=115.21
compound="CCOC(=O)N1CCC2(CC1)OS(=O)(=O)C=C2N [Compound 0523]" test_result=109.26
compound="CN1CCN(CC(=O)Nc2c(C#N)cnn2-c2ccccc2)CC1 [Compound 0220]" test_result=113.55
compound="O=C(O)C1CC=CCC1C(=O)Nc1ccc2ccccc2c1 (stereo not drawn) [Compound 4043]" test_result=81.24
compound="COc1ccc(Cl)cc1NC(=O)CC(C(=O)O)N1CCNCC1 (stereo not drawn) [Compound 9183]" test_result=107.36
compound="CCc1sc(NC(=O)C2CCCCC2C(=O)O)nc1-c1ccccc1 (stereo not drawn) [Compound 1501]" test_result=105.12
compound="CC1=NN(c2ccc(Cl)cc2)C(=O)/C1=C\\N1CCN(C)CC1 [Compound 6003]" test_result=93.06
compound="Cc1cc2nc(C[n+]3cccc(C(N)=O)c3)[nH]c2cc1C [Compound 0136]" test_result=108.76
compound="CN1CCN(C(=O)c2cc3cc([N+](=O)[O-])ccc3oc2=O)CC1 [Compound 2715]" test_result=114.38
compound="N=C1C(c2nc3ccccc3c(=O)[nH]2)=C(O)CN1c1cccc(Cl)c1 [Compound 7036]" test_result=95.45
compound="O=C(O)C1CCCCC1C(=O)Nc1ccc(Oc2ccc(Cl)cc2)cc1 (stereo not drawn) [Compound 1013]" test_result=126.45
compound="Cc1ccc2nc(CSc3nc(-c4ccncc4)ccc3C#N)[nH]c2c1 [Compound 9665]" test_result=100.83
compound="CCN(CC)S(=O)(=O)c1cccc(N=Nc2c(O)[nH]c(=O)[nH]c2=O)c1 [Compound 9274]" test_result=106.69
